system: KM12 colon; assay: NCI tumour cell line growth inhibition, 48 h
Consider the following compounds; for each one, report its TGI.
Numeric answer only, unit µM assumed.

Entry CC(O)c1cc2c(s1)C(=O)c1ccsc1C2=O (stereo not given) , TGI reported as 1.2

Field TGI (entry `C=C1C(=O)O[C@H]2[C@H]1CC/C(COC(=O)C(=O)c1cn(C)c3ccc(Cl)cc13)=C\CC[C@@]1(C)O[C@@H]21` ) reads 7.46

Reported TGI ( CC(=Nc1ccccc1)C1=C(O)C(Cc2ccc(O)cc2)NC1=O (stereo not given) ) = 1.31

Recorded result, COc1ccc2c3c([nH]c2c1[N+](=O)[O-])C(C)N(Cc1ccc([N+](=O)[O-])cc1)CC3 (stereo not given) , TGI: 49.6
